The reported numbers originate from patent US20260209348A1.

# target or system: recombinant ROR1 (Homo sapiens (Human), UniProt Q01973 30-406)
# Sequence (Q01973 30-406 limits assumed): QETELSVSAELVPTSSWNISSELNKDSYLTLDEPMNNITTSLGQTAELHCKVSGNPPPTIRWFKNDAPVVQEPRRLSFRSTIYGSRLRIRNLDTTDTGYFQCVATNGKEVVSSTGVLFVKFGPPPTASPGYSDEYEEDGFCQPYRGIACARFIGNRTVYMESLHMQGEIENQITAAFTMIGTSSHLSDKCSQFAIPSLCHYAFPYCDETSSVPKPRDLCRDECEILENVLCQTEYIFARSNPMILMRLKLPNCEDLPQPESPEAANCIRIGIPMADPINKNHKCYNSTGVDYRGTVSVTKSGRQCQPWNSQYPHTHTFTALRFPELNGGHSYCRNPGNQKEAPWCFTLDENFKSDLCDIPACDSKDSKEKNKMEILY
# protocol notes: dot blot on nylon membrane, anti-human IgG-HRP
endpoint name: binding result

>  <binder>
h6E6-070 (antibody, human IgG1, V domains shown, human IgG1; Alexa647 conjugate in flow cytometry; also called clone 70) VH: EVQLVESGGGLVKPGGSLRLSCAASGFTFSQYGHSWVRQAPGKGLEWVSTISSGGGYTHYAHSVKGRFTISRDNAKNSLYLQMNSLRAEDTAVYYCARHPRDFSYANDYWGQGTTVTVSS VL: EIVMTQSPATLSVSPGERATLSCRASQDVGHYLAWYQQKPGQAPRLLIYWASTRATGIPARFSGSGSGTEFTLTISSLQSEDFAVYYCQQYNIYPWTFGQGTKVEIK

>  <endpoint value>
no binding

$$$$
>  <binder>
h6E6-068 (antibody, human IgG1, V domains shown, human IgG1; also called clone 68) VH: EVQLVESGGGLVKPGGSLRLSCAASGFTFSSYGISWVRQAPGKGLEWVSTISSGGGYTHYAHSVKGRFTISRDNAKNSLYLQMNSLRAEDTAVYYCARHPRDFSYALDYWGQGTTVTVSS VL: EIVMTQSPATLSVSPGERATLSCKASQDVGHYLAWYQQKPGQAPRLLIYWASTRATGIPARFSGSGSGTEFTLTISSLQSEDFAVYYCQQYNIYPWTFGQGTKVEIK

>  <endpoint value>
no binding

$$$$
>  <binder>
h6E6-116 (antibody, human IgG1, V domains shown, human IgG1; Alexa647 conjugate in flow cytometry) VH: EVQLVESGGGLVKPGGSLRLSCAASGFTFSTYGVSWVRQAPGKGLEWVSTISSGGGYTHYAGSVKGRFTISRDNAKNSLYLQMNSLRAEDTAVYYCARHPRDFSYALDYWGQGTTVTVSS VL: EIVMTQSPATLSVSPGERATLSCRASQDVGHYLAWYQQKPGQAPRLLIYWASTRATGIPARFSGSGSGTEFTLTISSLQSEDFAVYYCQQYNIYPWTFGQGTKVEIK

>  <endpoint value>
no binding

$$$$
